biological target: Dimer of Gag-Pol polyprotein [501-599] (Human immunodeficiency virus 1, UniProt P03367); construct: 501-599; assay: Protease Inhibition Assay; settings: pH 4.7; 30 °C

ITEM SMILES	Ki
Cc1ccc(S(=O)(=O)N(CC(C)C)[C@@H](CCCCNC(=O)NCc2ccccn2)C(=O)O)cc1	> 300 nM
Cc1ccc(S(=O)(=O)N(CC(C)C)[C@@H](CCCCNC(=O)N(CCc2ccccc2)Cc2ccccc2)C(=O)O)cc1	> 300 nM

Where do the numbers come from? From BindingDB's records for doi:10.1016/j.bmcl.2004.05.049.
